Catalogue of melting point readings, one per entry.
Where a name gives a salt, the structure may show the parent alone.

// worked examples, melting point included
{"columns": ["molecule", "result"],
 "data": [
  ["FC(F)(F)c1ccc(OCC2CCCc3[nH]cnc32)cc1 (stereo not shown) (as salt: hydrochloride)", "242 to 244 °C"],
  ["Cl.Clc1ccccc1OCC1CCCc2[nH]cnc21 (stereo not shown)", "207 to 209 °C"],
  ["N#Cc1ccc(OCC2CCCCc3[nH]cnc32)cc1 (stereo not shown) (as salt: hydrochloride) [Example 57]", "232 to 235 °C"],
  ["Cc1cc(C#N)cc(C)c1OCC1CCCc2[nH]cnc21 (stereo not shown) (as salt: hydrochloride)", "190 to 192 °C"],
  ["Clc1ccc(OCC2CCCc3[nH]cnc32)cc1 (stereo not shown) (as salt: hydrochloride)", "210 to 212 °C"]
]}

The value of melting point measured for the molecule Cl.FC(F)(F)Oc1cccc(OCC2CCc3[nH]cnc3C2)c1 (stereo not shown) turned out to be 170 to 171 °C

Entry Cl.Clc1ccccc1OCC1CCc2[nH]cnc2C1 (stereo not shown) — recorded melting point = 224 to 226 °C

// sample Cl.c1ccc(-c2cccc(OCC3CCc4[nH]cnc4C3)c2)cc1 (stereo not shown) , its melting point was 165 to 167 °C

In plain terms, Cl.Fc1ccccc1OCC1CCc2[nH]cnc2C1 (stereo not shown) has a documented melting point of 192 to 194 °C

Looking up N#Cc1ccc(OCC2CCCc3[nH]cnc32)c(Cl)c1 (stereo not shown) (as salt: hydrochloride) , I found its melting point recorded as 225 to 227 °C
